Tested on: K98450-129-R-PDC multicell spheroids, viability;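 further: spheroids exposed to agents for seven days before read-out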
Assay: Anticancer human tumor K98450-129-R-PDC patient-derived colon adenocarcinoma cell line growth inhibition [PI3K]
Conditions: second compound 0.0316 µM; first compound 10 µM; stronger effect = lower value
Listed next: entries and their corresponding viability, T/C.
measure: viability, T/C (%)

1. C[C@@H](NC(=O)c1ncnc(N)c1Cl)c1ncc(C(=O)Nc2cc(C(F)(F)F)c(Cl)cn2)s1 + CC(Nc1ccc2c(c1)OCCn1cc(N3C(=O)OCC3C(F)F)nc1-2)C(N)=O : 104
2. Cn1nccc1Nc1nccc(-c2ccn(C(CO)c3ccc(Cl)c(F)c3)c(=O)c2)n1 (stereo not drawn) + CC(Nc1ccc2c(c1)OCCn1cc(N3C(=O)OCC3C(F)F)nc1-2)C(N)=O : 91
3. C#Cc1c(F)ccc2cc(O)cc(-c3ncc4c(N5CC6CCC(C5)N6)nc(OCC56CCCN5CC(F)C6)nc4c3F)c12 (stereo not drawn) + Cc1nc(NC(=O)N2CCCC2C(N)=O)sc1-c1ccnc(C(C)(C)C(F)(F)F)c1 : 83.2
4. Cn1ncc(Cl)c1-c1cc(C(=O)NC(CN)Cc2cccc(F)c2)sc1Cl (stereo not drawn) + Cc1nc(NC(=O)N2CCCC2C(N)=O)sc1-c1ccnc(C(C)(C)C(F)(F)F)c1 : 74.3
5. CCCS(=O)(=O)Nc1ccc(F)c(C(=O)c2c[nH]c3ncc(-c4ccc(Cl)cc4)cc23)c1F + CC(Nc1ccc2c(c1)OCCn1cc(N3C(=O)OCC3C(F)F)nc1-2)C(N)=O : 10.4
6. CC(Cn1ccc(-c2ccc(C#N)c(Cl)c2)n1)NC(=O)c1cc(C(C)O)[nH]n1 (stereo not drawn) + CC(Nc1ncnc2nc[nH]c12)c1cc2cccc(Cl)c2c(=O)n1-c1ccccc1 : 101
7. Cn1ncc(Cl)c1-c1cc(C(=O)NC(CN)Cc2cccc(F)c2)sc1Cl (stereo not drawn) + CC(Nc1ccc2c(c1)OCCn1cc(N3C(=O)OCC3C(F)F)nc1-2)C(N)=O : 99.3
8. CC(C)NCC(C(=O)N1CCN(c2ncnc3c2C(C)CC3O)CC1)c1ccc(Cl)cc1 (stereo not drawn) + COc1c(OCCCN2CCOCC2)ccc2c3n(c(=NC(=O)c4cnc(N)nc4)nc12)CCN3 : 86.2
